# Tested on: DUX4
# PROTOCOL SUMMARY: DUX4 repression, high-content immunocytochemistry assay in primary FSHD myotubes
# Format: cell-based, human
# EXPERIMENTAL CONDITIONS: Homo sapiens, Myotube, 15 h, read-out: EC50 DUX4
PROPERTY: EC50 (nM)
# value in nM; strip the unit string

>>> print(df.to_string())
                                   compound  subject_of_test  property  units_text  observed_measurement
0  CN1Cc2nccc(-c3cn(C)nc3-c3ccc(F)cc3)c2C1=O [Compound E]             DUX4      EC50          nM                  1890

# return recorded EC50 for input Fc1cccc(-n2cnc3c(NCc4nc5ccc(F)c(F)c5[nH]4)nc(N4CCOCC4)nc32)c1 [SR-3029, reference compound]
50
